Study target: Feline_OSMR_hlgG1_Fc (feline)
Sequence (chain, as listed by the source limits assumed, form in doubt): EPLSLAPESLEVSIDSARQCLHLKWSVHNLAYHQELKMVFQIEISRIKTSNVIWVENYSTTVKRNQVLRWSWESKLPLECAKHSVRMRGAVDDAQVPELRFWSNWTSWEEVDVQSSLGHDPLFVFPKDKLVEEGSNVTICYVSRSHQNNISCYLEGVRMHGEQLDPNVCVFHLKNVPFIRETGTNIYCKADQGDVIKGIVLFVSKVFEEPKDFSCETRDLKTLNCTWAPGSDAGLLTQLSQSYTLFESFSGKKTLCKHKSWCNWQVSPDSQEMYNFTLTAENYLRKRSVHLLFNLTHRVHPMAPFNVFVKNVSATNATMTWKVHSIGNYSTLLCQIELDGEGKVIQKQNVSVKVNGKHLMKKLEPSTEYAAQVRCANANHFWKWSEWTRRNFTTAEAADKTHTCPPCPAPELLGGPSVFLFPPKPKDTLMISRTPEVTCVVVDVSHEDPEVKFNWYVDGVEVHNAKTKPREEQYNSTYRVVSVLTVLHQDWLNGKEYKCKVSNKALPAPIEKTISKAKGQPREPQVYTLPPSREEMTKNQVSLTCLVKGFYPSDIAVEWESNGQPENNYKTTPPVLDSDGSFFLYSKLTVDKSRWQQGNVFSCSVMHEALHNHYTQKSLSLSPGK
Protocol details: SPR Biacore
Each item that follows carries a reported pKd.
Schema: pKd number; meaning minus log10 of the concentration expressed in molar units.

// Input: Mu_10F07_VL (SEQ ID NO: 41)_L33A (antibody, V domains shown) VH: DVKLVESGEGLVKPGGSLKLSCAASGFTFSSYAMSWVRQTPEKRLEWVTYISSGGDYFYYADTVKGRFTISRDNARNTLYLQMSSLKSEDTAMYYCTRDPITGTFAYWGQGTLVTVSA VL: DIQMTQTTSSLSASLGDRVTISCRASQDITNYANWYQQKPDGTVKLLIYYTSTLHSGVPSRFSGSGSGTDFSLTISNLEQEDIATYFCQQGHMLPWTFGGGTKLEIKR . Output its pKd only.
8.82

// Input: Mu_10F07_VH (SEQ ID NO: 39)_I101A (antibody, V domains shown) VH: DVKLVESGEGLVKPGGSLKLSCAASGFTFSSYAMSWVRQTPEKRLEWVTYISSGGDYFYYADTVKGRFTISRDNARNTLYLQMSSLKSEDTAMYYCTRDPATGTFAYWGQGTLVTVSA VL: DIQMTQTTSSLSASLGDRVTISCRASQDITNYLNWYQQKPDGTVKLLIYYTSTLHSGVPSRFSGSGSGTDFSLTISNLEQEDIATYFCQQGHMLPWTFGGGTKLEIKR . Output its pKd only.
8.16

// Input: Mu_19F07_VL (SEQ ID NO: 49)_F94A (antibody, V domains shown) VH: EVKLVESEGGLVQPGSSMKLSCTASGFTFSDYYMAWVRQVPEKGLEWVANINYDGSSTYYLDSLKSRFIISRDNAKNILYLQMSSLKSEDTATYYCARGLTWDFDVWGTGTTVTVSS VL: DIVMTQSHKFMSPSVGDRVSITCKASQDVDTAVAWYQQKPGQSPKLLIYLASTRHTGVPDRFTGSGSGTDFTLTISNVQSEDLADYFCQQYSRAPLTFGAGTKLELKR . Output its pKd only.
11.28
